Test system: human hepatoma cell line ET
Procedure summary: Cytotoxicity in the replicon cell line, colorimetric assay of cell numbers
Applied conditions: read-out: Cytotoxicity IC50; ET cells, 72 h; concentration inhibiting cell viability by 50%
Entries and their IC50
Measure: IC50

Molecule	Value measured
C/C=C/C[C@@H](C)[C@@H](O)[C@H]1C(=O)N[C@@H](CC)C(=O)N(C)C(OCCN(C)C(C)C)C(=O)N(C)[C@@H](CC(C)C)C(=O)N[C@@H](C(C)C)C(=O)N(C)[C@@H](CC(C)C)C(=O)N[C@@H](C)C(=O)N[C@H](C)C(=O)N(C)[C@@H](CC(C)C)C(=O)N(C)[C@@H](CC(C)C)C(=O)N(C)[C@@H](C(C)C)C(=O)N1C (some centres unmarked)	8.2 µM
C/C=C/C[C@@H](C)[C@@H](O)[C@H]1C(=O)N[C@@H](CC)C(=O)N(C)C(SCC)C(=O)N(C)[C@@H](CC(C)C)C(=O)N[C@@H](C(C)C)C(=O)N(C)[C@@H](CC(C)C)C(=O)N[C@@H](C)C(=O)N[C@H](C)C(=O)N(C)[C@@H](CC(C)C)C(=O)N(C)[C@@H](CC(C)C)C(=O)N(C)[C@@H](C(C)C)C(=O)N1C (some centres unmarked)	6.15 µM

Origin of measurements: patent US7718767B2
